Source: patent US20240002497A1

I'd appreciate it if you could supply Qpatch IC50 values for the items below.
# system_under_test: huNav1.7α + β1 (human)
# method_summary: cell-based or functional assay
One number for each entry, in nM.

F010300659 (VHH, also called F0103275B05(S27P, I28V, S50Y, N53P, G55W, S56D, T57W, N93R, A94W)-FLAG3 + HIS6) VHH: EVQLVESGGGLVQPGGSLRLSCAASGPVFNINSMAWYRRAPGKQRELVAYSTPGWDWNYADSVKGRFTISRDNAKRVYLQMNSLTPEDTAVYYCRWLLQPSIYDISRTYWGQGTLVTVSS | 85

Dear colleague, could you please provide Qpatch IC50 for the binders listed below?
1. F010300477 (VHH) VHH: EVQLVESGGGLVQPGGSLRLSCAASGSIFNINSMAWYRRAPGKQRELVASSTNGGSTNYADSVKGRFTISRDNAKRVYLQMNSLTPEDTAVYYCNWLLQPSIYDISRTYWGQGTLVTVSS
2. F010300880 (VHH) VHH: EVQLVESGGGLVQPGGSLRLSCAASGPVFNINRMAWYRRAPGKQRELVASSTPGGDTNYADSVKGRFTISRDNAKRVYLQMNSLTPEDTAVYYCRWLLQPSIYDISRTYWGQGTLVTVSS
3. F010300990 (VHH) VHH: EVQLVESGGGLVQPGGSLRLSCAASGPVFNINRMAWYRRAPGKQRELVAYSTPGGSTNYADSVKGRFTISRDNAKRVYLQMNSLTPEDTAVYYCNALLQPSIYDISRIYWGQGTLVTVSS
4. F010302383 (VHH) VHH: EVQLVESGGGVVQPGGSLRLSCAASGPVFNINRMAWYRQAPGKQRELVAYVTPTGDISYADSVKGRFTISRGGSKRVYLQMNSLRPEDTALYYCRALLQPSSYSGTRTYWGQGTLVTVSS
5. F010300684 (VHH) VHH: EVQLVESGGGLVQPGGSLRLSCAASGPVFNWNSMAWYRRAPGKQRELVASSTPGGSTNYADSVKGRFTISRDNAKRVYLQMNSLTPEDTAVYYCRALLQPSIYDISRIYWGQGTLVTVSS

96
27
249
22
202
